measurementDescription: Sputum concentration of CHF6001
Type: in vivo, human
assaySetup: both sexes, human, sputum; 1600 μg BID inhaled; mean of all values measured on Days 20, 26 and 32; geometric mean (%CV); read-out: Sputum concentration at 2 h post-dose
measure: concentration at 2 h

compound="CS(=O)(=O)Nc1ccc(C(=O)O[C@@H](Cc2c(Cl)c[n+]([O-])cc2Cl)c2ccc(OC(F)F)c(OCC3CC3)c2)cc1OCC1CC1 [CHF6001]" measure="concentration at 2 h" endpointresult="10200 ng/mL"

====

measurementDescription: Plasma pharmacokinetics at steady state (Day 32)
Type: in vivo, human
assaySetup: both sexes, human, inhaled or intranasal, 1600 ug; 1600 μg BID inhaled; plasma on Day 32; geometric mean (%CV)
measure: Cmax (ng/mL)

molecule="CS(=O)(=O)Nc1ccc(C(=O)O[C@@H](Cc2c(Cl)c[n+]([O-])cc2Cl)c2ccc(OC(F)F)c(OCC3CC3)c2)cc1OCC1CC1 [CHF6001]" endpointresult=4.5

====

measurementDescription: Sputum concentration of CHF6001
Type: in vivo, human
assaySetup: both sexes, human, sputum; 800 μg BID inhaled; mean of all values measured on Days 20, 26 and 32; geometric mean (%CV); read-out: Sputum concentration at 2 h post-dose
measure: concentration at 2 h (ng/mL)

smilesrepresentation=CS(=O)(=O)Nc1ccc(C(=O)O[C@@H](Cc2c(Cl)c[n+]([O-])cc2Cl)c2ccc(OC(F)F)c(OCC3CC3)c2)cc1OCC1CC1 endpointresult=4900
